Overview of recorded fold change of Putrescine concentration for various molecules
- System: Escherichia coli IAI1
- test_protocol: fold change of Putrescine concentration vs plate DMSO controls (fold change (ratio)); higher = more amine produced, active = hit call of the paper (significant change in both replicates, either direction)
- recorded_conditions: incubation time: 27 h, anaerobic, 37 °C
Where a name gives a salt, the structure may show the parent alone.
measured_property: fold change of Putrescine concentration

1. Cc1cc(C(=O)NNCc2ccccc2)no1 [Isocarboxazid] (20 µM)
1.05 (inactive)
2. CC1(C)S[C@@H]2[C@H](NC(=O)C(C(=O)O)c3ccccc3)C(=O)N2[C@H]1C(=O)O (some centres undefined) [Carbenicillin disodium salt] (20 µM)
0.927 (inactive)
3. O=C(O)c1ccccc1OP(=O)(O)O [Fosfosal] (20 µM)
0.942 (inactive)
4. CC/C(=C(\c1ccccc1)c1ccc(OCCN(C)C)cc1)c1ccccc1 [Tamoxifen citrate] (20 µM)
1.06 (inactive)
